The reported measurements were obtained from PubChem BioAssay.

# Tested on: Noggin (protein binding on small-molecule microarray)
# procedure_text: Noggin binders on small-molecule microarray, primary screen, biochemical, 635/667 nm fluorescence (AID 1095);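 note: score merges 667 nm feature fluorescence with signal to noise over triplicate slides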
# setup_conditions: 635 nm fluorescence, higher = more signal
Label yes (1) when composite z-score is at or above 0.5; anything below gets no (0).

Sample answers from the record:
compound: O=C(NN=C1C[C@@H](O)[C@@H](O)[C@@H]2[C@@H]3C(=O)N(c4cccc(Oc5ccccc5)c4)C(=O)[C@@H]3CC[C@H]12)OCc1ccccc1
system_under_test: Noggin (protein binding on small-molecule microarray)
label_class: yes (1)

compound: O=C(CS)NCCCCCNC(=O)[C@H]1C[C@H]2C(=O)N3CCC[C@H]3C(=O)N2[C@H]1c1cccc(OCCO)c1
system_under_test: Noggin (protein binding on small-molecule microarray)
label_class: yes (1)

compound: C#C[C@@H]1Oc2ccccc2S(=O)(=O)N2CCC[C@H]12
system_under_test: Noggin (protein binding on small-molecule microarray)
label_class: no (0)

compound: O=C1[C@H]2[C@H]3[C@H](O)[C@H](O)CC(=NO[C@@H]4O[C@H](CO)[C@@H](O)[C@H](O)[C@H]4O)[C@H]3CC[C@H]2C(=O)N1Cc1ccc2c(c1)OCO2
system_under_test: Noggin (protein binding on small-molecule microarray)
label_class: no (0)

compound: C[C@@H](c1ccccc1)N1C(=O)[C@H]2[C@H]3[C@H](O)[C@H](O)CC(=NNC(=O)OCc4ccccc4)[C@H]3CC[C@H]2C1=O
system_under_test: Noggin (protein binding on small-molecule microarray)
label_class: no (0)

Data request: Determine whether measured composite z-score meets or exceeds 0.5 for `CC(=O)OC[C@H]1O[C@H](CCON=C(C)CCC(=O)OC[C@H]2O[C@H](C#Cc3ccccc3)C=C[C@@H]2Oc2ccc(C)cc2)C=C[C@@H]1OC(C)=O`
Data returned: no (0)

Data request: Determine whether measured composite z-score meets or exceeds 0.5 for `O=C1[C@H]2[C@H]3[C@H](O)[C@H](O)CC(=NO[C@@H]4O[C@H](CO)[C@@H](O)[C@H](O)[C@H]4O)[C@@H]3CC[C@H]2C(=O)N1c1ccc(F)cc1F`
Data returned: yes (1)

Data request: Determine whether measured composite z-score meets or exceeds 0.5 for `Cc1ccc(S(=O)(=O)N[C@@H]2COC(=O)[C@H](C)COC(=O)CC=C[C@H]2C)cc1`
Data returned: yes (1)

Data request: Determine whether measured composite z-score meets or exceeds 0.5 for `CCc1cc2c(nc1CC)CCN(CCC(C)=NOC[C@@H](O)COCc1ccco1)C2`
Data returned: yes (1)
